target: T1, Human PD-L1 expressed on cells (human, UniProt Q9NZQ7 19-290); test: flow cytometry on CHO hPD-L1 cells, competitor biotin-PD-1-Fc, n = 1
T1 construct: One entry used for transfected and natively expressing cells; also called CHO-S hPD-L1; CHO human PD-L1
T1 sequence (Q9NZQ7 19-290 limits assumed): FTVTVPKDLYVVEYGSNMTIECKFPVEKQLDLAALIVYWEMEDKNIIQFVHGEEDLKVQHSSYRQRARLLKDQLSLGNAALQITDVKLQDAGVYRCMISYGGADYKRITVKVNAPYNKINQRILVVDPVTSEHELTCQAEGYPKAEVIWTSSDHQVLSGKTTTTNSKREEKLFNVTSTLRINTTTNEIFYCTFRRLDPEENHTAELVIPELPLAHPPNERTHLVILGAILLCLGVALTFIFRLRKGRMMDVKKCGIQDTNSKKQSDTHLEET
READOUT LABEL: pIC50
# log scale: pIC50 equals minus log10 of the concentration in mol/L

Which pIC50 value is on record for 84G09 (human IgG1) (antibody, V domains shown, also called clone 84609; lead antibody) VH: EVQLVESGGGLVQPGRSLRLSCAASGFTFDDYAMHWVRQTPGKGLEWVSGISWKSNIIGYADSVKGRFTISRDNAKNSLYLQMNSLRAEDTALYYCARDITGSGSYGWFDPWGQGTLVTVSS VL: DIQMTQSPSSLSASVGDRVTITCRASQSISSYLNWYQQKPGKAPKPLIYVASSLQSGVPSSFSGSGSGTDFTLTISSLQPEDFATYYCQQSYSNPITFGQGTRLEIKR ?
9.05
